# procedure_summary: ATG_TCF_b_cat_CIS: Attagene CIS-FACTORIAL HepG2 Assay for human T-Cell-Factor with beta-catenin (TCF/b-cat) (AID 2282965)
# condition_parameters: HepG2 TCF/beta-catenin cis-reporter transcription, actives raise or lower the signal
# Procedure: ATG_CIS is a cell-based, multiplexed-readout assay that uses HepG2, a human liver cell line, with measurements taken at 24 hours after chemical dosing in a 24-well plate.ATG_TCF_b_cat_CIS is one of 52 assay component(s) measured or calculated from the ATG_CIS assay. […] This assay endpoint, ATG_TCF_b_cat_CIS, was analyzed with bidirectional fitting relative to DMSO as the negative control and baseline of activity. […]
Activity calls are given as the source filed them. The calls were made as follows: active = hit-call score of the fitted dose curve at least 0.9, where 1 is the maximum; inactive = score below 0.9.
metric: AC50

Some entries whose results are on file:
INSERT INTO results (compound, reading) VALUES
  ('C1CN2CCN1CC2', 'inactive'),
  ('CC1(C)COP(Oc2ccccc2)OC1', 'inactive'),
  ('CC(C)(C#N)N=NC(C)(C)C#N', 'inactive'),
  ('N#CCC#N', 'inactive'),
  ('N#Cc1ccc(Cl)cc1', 'inactive'),
  ('COCC(=O)N(c1c(C)cccc1C)[C@H](C)C(=O)OC', 'inactive'),
  ('O=[N+]([O-])c1ccc(Cl)c([N+](=O)[O-])c1', 'inactive'),
  ('Clc1cccc(Cl)c1Cl', 'inactive'),
  ('CN(C)CCN(C)C', 'inactive'),
  ('CN(N=O)c1ccc([N+](=O)[O-])cc1', 'inactive');

Would you mind telling me what AC50 value was observed for `CNC(=O)CSP(=O)(OC)OC` ?
inactive

Would you mind telling me what AC50 value was observed for `C[As+](C)(C)CC(=O)[O-]` ?
inactive

Would you mind telling me what AC50 value was observed for `O=C1C=CC(=O)c2ccccc21` ?
inactive

Would you mind telling me what AC50 value was observed for N#CCCC(Br)(C#N)CBr (stereo not given) ?
51 µM (active)

Would you mind telling me what AC50 value was observed for `CCOP(=S)(OCC)SCS(=O)(=O)C(C)(C)C` ?
inactive

Would you mind telling me what AC50 value was observed for `c1csc(-c2ccc(-c3cccs3)s2)c1` ?
inactive

Would you mind telling me what AC50 value was observed for `CC(=O)CN(CC(C)=O)N=O` ?
inactive
